meta.source: ChEMBL document CHEMBL4513216

assay_protocol: Toxicity liver stage against HepG2, at 10uM
Type: cell-based
Design: test concentration 10 uM, cell line HepG2-A16-CD81EGFP
condition_set: human, HepG2-A16-CD81EGFP cells; read-out: INHIBITION
Documented cytotoxicity at 10 µM across a set of molecules
measured_endpoint: cytotoxicity at 10 µM (%)

INSERT INTO results (molecule, measured_value) VALUES
  ('O=C(C[S+]([O-])C1CCCC1)NCCOc1cccc(Cl)c1 (stereo unspecified)', -143),
  ('O=C(O)CSc1nccc(-c2ccc3c(c2)OCO3)n1', -3.61),
  ('O=C(O)[C@H]1CCCN1CCOc1cccc(Cl)c1', 17),
  ('CCN(Cc1noc(C)n1)C(=O)CCn1c(C)cc2ccccc21', -3.97),
  ('CCn1nc2c(cc1=O)CN(Cc1nc(-c3cccs3)no1)CC2', -8.99),
  ('Cc1nocc1C(=O)N1CCCC2(CCN(c3cnn(C)c3)C2=O)C1 (stereo unspecified)', 2.43),
  ('O=c1cc(CNS(=O)(=O)C2CC2)nc2n1CCCN(CC1CC1)C2', -104),
  ('Fc1ccc(CN2CCCC(c3cc4ncccc4[nH]3)C2)cc1 (stereo unspecified)', -1.87),
  ('Cc1nc(C(C)NCc2cc(O)c3cccc(F)c3n2)cs1 (stereo unspecified)', 8.33),
  ('Cc1oc(-c2ccsc2)nc1CC(=O)NCCCS(C)(=O)=O', -11.2),
  ('COC(=O)[C@H]1C[C@@H](O)CCN1S(=O)(=O)c1c(C)cc(OC)c(C)c1C', -16.2);

* * *

assay_protocol: Toxicity liver stage against HepG2, at 10uM
Type: cell-based
Parameters: test concentration 10 uM, cell line HepG2-A16-CD81EGFP
condition_set: human, HepG2-A16-CD81EGFP cells; read-out: INHIBITION
measured_endpoint: cytotoxicity at 10 µM (%)

INSERT INTO results (compound, measured_endpoint, measured_value) VALUES
  ('COc1cc(N2C[C@H]3CN(C(=O)c4cccnc4)C[C@H]3C2)ncn1', 'cytotoxicity at 10 µM', -141),
  ('CCN(CC)C(CNS(=O)(=O)c1ccc(C(C)=O)cc1)c1ccco1 (configuration not stated)', 'cytotoxicity at 10 µM', -20.1),
  ('Cn1cc(CN2CCC3(CC2)CCN(C(=O)c2cscn2)C3)cn1', 'cytotoxicity at 10 µM', -2.45),
  ('Cc1nc(N(C)C)nc(N(C)Cc2cnccn2)c1C', 'cytotoxicity at 10 µM', 3.4),
  ('Cc1cc(C2CCCN(C(=O)c3cnccn3)C2)ccn1 (configuration not stated)', 'cytotoxicity at 10 µM', 0.204),
  ('Cc1cnc(C(=O)N2CCCCC2c2nc(C)cs2)cn1 (configuration not stated)', 'cytotoxicity at 10 µM', -15.3),
  ('CC(=O)N1CCC2(CC1)COCCN2Cc1ccc(F)cc1', 'cytotoxicity at 10 µM', 5.69);

* * *

assay_protocol: Toxicity liver stage against HepG2, at 10uM
Assay type: cell-based
Design: test concentration 10 uM, cell line HepG2-A16-CD81EGFP
condition_set: human, HepG2-A16-CD81EGFP cells; read-out: INHIBITION
measured_endpoint: cytotoxicity at 10 µM (%)

INSERT INTO results (compound, measured_endpoint, measured_value) VALUES
  ('Cc1ccc(-c2csc(-c3cccc(C(=O)O)c3)n2)cc1', 'cytotoxicity at 10 µM', 3.21),
  ('CC(C)n1ccnc1CN1C(=O)OC[C@@H]1c1ccccc1', 'cytotoxicity at 10 µM', -8.48),
  ('CCNC(=O)NC1CN(Cc2ccncc2Cl)C[C@@H]1OC (some centres undefined)', 'cytotoxicity at 10 µM', 1.85),
  ('Cc1c(F)cccc1S(=O)(=O)NCCN', 'cytotoxicity at 10 µM', 1.99);

* * *

Here, each record is paired with measured cytotoxicity at 10 µM data.
assay_protocol: Toxicity liver stage against HepG2, at 10uM
Type: cell-based
Parameters: test concentration 10 uM, cell line HepG2-A16-CD81EGFP
condition_set: human, HepG2-A16-CD81EGFP cells; read-out: INHIBITION
measured_endpoint: cytotoxicity at 10 µM (%)

INSERT INTO assay_data (compound, measured_value) VALUES
  ('CCC(CN1CCCCC1)NC(=O)C1(c2cccc(F)c2)CC1 (stereo unspecified)', 0.689),
  ('N#Cc1cccc(S(=O)(=O)N(CC2CCC2)c2cn[nH]c2)c1', 10.9),
  ('O=C(Cn1c(=O)n(Cc2ccco2)c2ncccc21)NC1CCCC1', -3.05),
  ('COc1ccc(Nc2c[nH]c(=O)[nH]c2=O)cc1', 14.2),
  ('O=C(NC1CC1)c1nc2c(o1)CN(c1ncccn1)C2', 0.718),
  ('O=C(CCc1ccc(-n2cnnn2)cc1)Nc1nncs1', -1.14);

* * *

assay_protocol: Toxicity liver stage against HepG2, at 10uM
Type: cell-based
Parameters: test concentration 10 uM, cell line HepG2-A16-CD81EGFP
condition_set: human, HepG2-A16-CD81EGFP cells; read-out: INHIBITION
measured_endpoint: cytotoxicity at 10 µM (%)

INSERT INTO measurements (compound, measured_value) VALUES
  ('Cc1nc2c(c(NCc3cnc4c(c3)CCC4)n1)CNC2', -3.57),
  ('CC(C)C(=O)N1CCC(Cc2nccnc2Nc2ccccn2)CC1', -7.08),
  ('CSCc1noc(CN2CC3(CCCC3)CC2=O)n1', 4.29),
  ('Cc1nnc([C@H]2C[C@@H]3CCN(Cc4cc(C)on4)C[C@H]3O2)[nH]1', -5.03),
  ('CNc1nc2c(s1)C(c1ccccc1Cl)CC(=O)N2 (configuration not stated)', 2.82),
  ('COc1ccc(C2CCCN2Cc2cnn(C)c2)cc1 (configuration not stated)', 7.53),
  ('CCCN(CCc1ccccn1)C(=O)CCc1cnn(C)c1', -2.84),
  ('Cc1ncsc1CCC(=O)NCc1csc(N(C)C)n1', 1.31),
  ('Cc1nc(C2(O)CCCNCC2)sc1CCOc1ccccc1Cl (configuration not stated)', -28.1),
  ('CCc1nc(CC(=O)NC(C#N)CC(C)C)cs1 (configuration not stated)', 9.17),
  ('CC(=O)N1CCn2cc(CNC(=O)c3cccn3C)nc2C1', 1.88),
  ('Fc1cccc(C2(CNC3CCSC3)CCOCC2)c1 (configuration not stated)', -1.86);

* * *

assay_protocol: Toxicity liver stage against HepG2, at 10uM
Type: cell-based
Parameters: test concentration 10 uM, cell line HepG2-A16-CD81EGFP
condition_set: human, HepG2-A16-CD81EGFP cells; read-out: INHIBITION
measured_endpoint: cytotoxicity at 10 µM (%)

INSERT INTO results (compound, measured_endpoint, reading_unit, measured_value) VALUES
  ('Cc1nc(Nc2nccs2)cc(C2CCCN2C2CCOCC2)n1 (stereo not given)', 'cytotoxicity at 10 µM', '%', -7.08),
  ('CN1C[C@H](O)C[C@H]1c1nc(-c2ccc3c(c2)OCO3)no1', 'cytotoxicity at 10 µM', '%', 6.88),
  ('CC(NC(=O)CCn1cccn1)c1cccs1 (stereo not given)', 'cytotoxicity at 10 µM', '%', -3.57),
  ('Cc1ccoc1C(=O)N1CCCN(Cc2cnn(C)c2)CC1', 'cytotoxicity at 10 µM', '%', -11.1),
  ('CC(C)CN1CCN(C(=O)Nc2cc(C(F)(F)F)c[nH]c2=O)CC1', 'cytotoxicity at 10 µM', '%', -3.43);

* * *

assay_protocol: Toxicity liver stage against HepG2, at 10uM
Type: cell-based
Parameters: test concentration 10 uM, cell line HepG2-A16-CD81EGFP
condition_set: human, HepG2-A16-CD81EGFP cells; read-out: INHIBITION
measured_endpoint: cytotoxicity at 10 µM (%)

INSERT INTO measurements (molecule, measured_value) VALUES
  ('Cc1nn(C)c(C)c1C1CCCN1C(=O)c1cnc2onc(C)c2c1 (stereo not drawn)', -8.48),
  ('O=C(CCOc1ccccc1)NS(=O)(=O)Cc1ccccc1', -1.48),
  ('COCCO[C@@H]1CCN(Cc2csc(C)n2)[C@H]1Cc1ccccc1', 5.98),
  ('Cc1cc(C(=O)N(C)C)nc(C2(C)CCCN2c2ccccc2)n1 (stereo not drawn)', 4.89),
  ('O=C1N(Cc2cccnc2)CCC12CCCN(c1ncccn1)C2 (stereo not drawn)', -10.9),
  ('N[C@H]1CN(C(=O)c2cnc3cc(Cl)ccc3c2O)C[C@@H]1C1CC1', -44.1),
  ('COCCN(Cc1sccc1C)c1nc(C)nc2sccc12', -131),
  ('O=C1CCSCC(C(=O)N2CCCCC2)N1 (stereo not drawn)', -3.55);

* * *

assay_protocol: Toxicity liver stage against HepG2, at 10uM
Assay type: cell-based
Set-up: test concentration 10 uM, cell line HepG2-A16-CD81EGFP
condition_set: human, HepG2-A16-CD81EGFP cells; read-out: INHIBITION
measured_endpoint: cytotoxicity at 10 µM (%)

INSERT INTO results (compound, measured_endpoint, reading_unit, measured_value) VALUES
  ('CN(C)[C@@H]1CCN(c2ncccn2)[C@H]1Cc1cccnc1', 'cytotoxicity at 10 µM', '%', -3.9),
  ('CC(C)N1CCOCC2(CCCN(C(=O)CCc3cccnc3)C2)C1 (configuration not stated)', 'cytotoxicity at 10 µM', '%', 2.66),
  ('NC1CCC(CN2CCCn3nc(CNC(=O)C4CCC4)cc3C2)CC1 (configuration not stated)', 'cytotoxicity at 10 µM', '%', 4.03),
  ('CC(C)NC(=O)COc1nc(C(C)C)no1', 'cytotoxicity at 10 µM', '%', -3.34),
  ('CNC(=O)[C@H]1C[C@@H]2CN(c3cc(OC)ncn3)C[C@@H]2N1C(C)C', 'cytotoxicity at 10 µM', '%', -8.84),
  ('CC(C)c1nc2c(n1C)CCN(CC(=O)Nc1cccnc1)C2', 'cytotoxicity at 10 µM', '%', -9.52),
  ('O=C(N1CCCC1)N1CCOCC2(CCN(Cc3cccs3)C2)C1 (configuration not stated)', 'cytotoxicity at 10 µM', '%', -3.85),
  ('CC(C)c1nnc(CN2CC(n3cccn3)C2)o1', 'cytotoxicity at 10 µM', '%', -149),
  ('Cc1ccc(CNc2cc(C(=O)N3CCOCC3)nc(C)n2)cc1', 'cytotoxicity at 10 µM', '%', -1.61),
  ('CCc1csc(C2CCCN(C(=O)c3ncccn3)C2)n1 (configuration not stated)', 'cytotoxicity at 10 µM', '%', -1.92),
  ('COCCC(=O)N(CCC#N)c1ccc2c(c1)OCCO2', 'cytotoxicity at 10 µM', '%', -1.23),
  ('CCCc1nc(N(C)Cc2cnc(NC)nc2)c2cnn(C)c2n1', 'cytotoxicity at 10 µM', '%', 3.42),
  ('CC(NC(=O)Cc1cccs1)c1nnc2n1CCC2 (configuration not stated)', 'cytotoxicity at 10 µM', '%', -7.56),
  ('NC(=O)c1cccc(CCNCc2cnc(-c3cccs3)s2)c1', 'cytotoxicity at 10 µM', '%', 2.49),
  ('CC1COCCN1C(=O)COc1cccc(Oc2ccccn2)c1 (configuration not stated)', 'cytotoxicity at 10 µM', '%', -5.15),
  ('NC(=O)C1CCN(CC(=O)NCCn2cc(Cl)cn2)CC1', 'cytotoxicity at 10 µM', '%', -50),
  ('Cc1cccc(CN2CC[C@H]3O[C@H](C(=O)Nc4cnccn4)CC[C@H]32)n1', 'cytotoxicity at 10 µM', '%', -144);
